Reported DC50 values for a set of compounds
# ASSAYED_SYSTEM: BRD4^Long (Homo sapiens)
# Construct: Western blot data for BET, CRBN and VHL protein levels; endogenous in cells; host or cells: HEK293 (ATCC)
# EXPERIMENTAL_DETAILS: Western blot dose-response degradation in HEK293 cells
# Format: cell-based
# EXPERIMENTAL_CONTEXT: HEK293 cells, 6 h, Western blot; mean ± S.E.M. of three experiments, values marked b mean ± S.D. of two
Number only, in nM; omit the unit.

These solved cases illustrate the format of a correct answer.
Cc1ncsc1-c1ccc(CNC(=O)[C@@H]2C[C@@H](O)CN2C(=O)[C@@H](NC(=O)COCC(C)(COCCOCCOCCNc2cccc3c2C(=O)N(C2CCC(=O)NC2=O)C3=O)COCCOCCOC(=O)C[C@@H]2N=C(c3ccc(Cl)cc3)c3c(sc(C)c3C)-n3c(C)nnc32)C(C)(C)C)cc1 (mixture of isomers) [AB3064 (25)] : 12
Cc1ncsc1-c1ccc(CNC(=O)[C@@H]2C[C@@H](O)CN2C(=O)[C@@H](NC(=O)COCC(C)(COCCOCCNc2cc3c(cc2F)C(=O)N(C2CCC(=O)NC2=O)C3=O)COCCOCCOC(=O)C[C@@H]2N=C(c3ccc(Cl)cc3)c3c(sc(C)c3C)-n3c(C)nnc32)C(C)(C)C)cc1 (mixture of isomers) [AB3125 (30)] : 4

Request: # get_value(readout='DC50', item= Cc1ncsc1-c1ccc(CNC(=O)[C@@H]2C[C@@H](O)CN2C(=O)[C@@H](NC(=O)COCC(C)(COCCOCCOCCNc2cc3c(cc2F)C(=O)N(C2CCC(=O)NC2=O)C3=O)COCCOCCOC(=O)C[C@@H]2N=C(c3ccc(Cl)cc3)c3c(sc(C)c3C)-n3c(C)nnc32)C(C)(C)C)cc1 (mixture of isomers) [AB3065 (28)] )
Response: 10

Values from paper PMC11638965
